Cited source for all entries: ChEMBL document CHEMBL5537201

assay: Hemolytic activity in rabbit Red blood cell assessed as hemolysis incubated for 1 hr by two-fold microdilution method; assay type: toxicity, cell-based, Oryctolagus cuniculus, Erythrocyte; settings: red blood cells (erythrocytes)
endpoint: HC50 at 1 h (µg/mL)
Report only the number, with the unit µg/mL understood.

Some entries whose results are on file:
smilesCode | HC50 at 1 h [µg/mL]
O=C(CCC(F)(F)F)N(Cc1cc2ccccc2s1)c1cc(-c2ccc(C(F)(F)F)cc2)ccc1O | 5570
O=C(CCC(F)(F)F)N(Cc1cc2ccccc2s1)c1cc(-c2ccccc2)ccc1O | 1770
O=C(CCC(F)(F)F)N(Cc1cc2ccccc2s1)c1cc(-c2noc(C(F)(F)F)n2)ccc1O | 2400
O=C(CCC(F)(F)F)N(Cc1cc2ccccc2s1)c1cc(-c2ccco2)ccc1O | 1640
O=C(CCC(F)(F)F)N(Cc1cc2ccccc2s1)c1cc(-c2cccc(C(F)(F)F)c2)ccc1O | 3280
O=C(CCC(F)(F)F)N(Cc1cc2ccccc2s1)c1cc(-c2ccc(F)cc2)ccc1O | 2150

# ---- query compound ----
Short answer for "O=C(CCC(F)(F)F)N(Cc1cc2ccccc2s1)c1cc(-c2ccc(Cl)cc2)ccc1O" : HC50 at 1 h was 1920
